# credit: PubChem BioAssay (NCATS)

Tested on: PC49
Experiment: qHTS profiling for inhibitors of Plasmodium falciparum proliferation (AID 504749); further: nearly all actives have a fitted effect of over 60% in size
Conditions: P. falciparum in erythrocytes, SYBR Green DNA, 72 h; series mostly up to 12.8 µM
Records with an inconclusive call do not appear. The source made the active and inactive calls. The call rests on the fitted dose curve; in most records, active means well fitted inhibition curve with a large enough effect; inconclusive means small, poorly fitted or top-dose-only effect; inactive means flat fitted curve, though single readings scatter.
PARAMETER: outcome

1) CCN[C@@H]1C[C@H](C)S(=O)(=O)c2sc(S(N)(=O)=O)cc21 :: inactive
2) C[C@H](NCCc1ccc(O)cc1)[C@@H](O)c1ccc(O)cc1 :: inactive
3) CO[C@]1(NC(=O)CSCC#N)C(=O)N2C(C(=O)O)=C(CSc3nnnn3C)CS[C@H]21 :: inactive

---

Test system: CP215
Assay: qHTS profiling for inhibitors of Plasmodium falciparum proliferation (AID 504749); further: nearly all actives have a fitted effect of over 60% in size
Details: P. falciparum in erythrocytes, SYBR Green DNA, 72 h; series mostly up to 28.7 µM
Inconclusive results are not listed. Activity calls are given as the source filed them. The call rests on the fitted dose curve; in most records, active means well fitted inhibition curve with a large enough effect; inconclusive means small, poorly fitted or top-dose-only effect; inactive means flat fitted curve, though single readings scatter.
Bench note: report the call from active, inactive

1. CCn1cc(C(=O)O)c(=O)c2cc(F)c(N3CCN[C@@H](C)C3)c(F)c21 :: inactive
2. CC(=O)OCC1=C(C(=O)O)N2C(=O)[C@@H](NC(=O)CSc3ccncc3)[C@@H]2SC1 :: inactive
3. N[C@@H](CO)C(=O)NNCc1ccc(O)c(O)c1O :: inactive
4. CCN[C@@H]1C[C@H](C)S(=O)(=O)c2sc(S(N)(=O)=O)cc21 :: inactive

Turning now to a further record.
Challenge: Fill in: this test's call for Cc1cc(/C=C\c2ccc3cc(N(C)C)ccc3[n+]2C)c(C)n1-c1ccccc1 is ___
Response given: active

---

Experiment: NFAT Signaling Pathway (AID 444);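 further: carbachol stimulus at about its EC50 of 1 µM final; on the % scale 0 is the no-effect control and ±100 the full control effect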
Conditions: Jurkat NFAT-bla M1, carbachol, beta-lactamase ratio, 5 h; at 7.69 µM (top of the series) unless noted
Inconclusive results are not listed. Active and inactive are the calls of the source. Calls come from the whole dose curve; as a rule, active = well fitted curve in either direction with a large enough effect (not every such curve was filed as active); inconclusive = small, poorly fitted or top-dose-only effect, or another doubt; inactive = flat fitted curve, though single readings scatter.
Bench note: report the call from 1 (yes) (active), 0 (no) (inactive)

1. COc1ccc(-n2c(=O)cnc3cnc(Oc4cccc(Cl)c4)nc32)cc1 :: 0 (no)
2. COc1ccc(NC(=O)N2CCC3(CC2)CCN(C(=O)c2cccn2C)CC3)cc1 :: 0 (no)
3. CN(C)Cc1ccccc1-c1ccc2ncnc(NCc3ccccc3)c2c1 :: 0 (no)
4. COc1cccc(Cn2c(=O)cnc3cnc(OCc4ccccc4)nc32)c1 :: 0 (no)
5. O=C(Oc1ccccc1)N1CCC2(CCCN(c3cccc(-c4ccccc4)c3)C2)CC1 :: 0 (no)

Challenge: Fill in: this test's call for O=c1cnc2cnc(N3CCNCC3)nc2n1C1CC1 is ___
Response given: 0 (no)

Challenge: Here is the next compound: O=C(c1cc(C(F)(F)F)cc(C(F)(F)F)c1)N1CCC2(CC1)CN(Cc1ccncc1)C2
Response given: 0 (no)

Challenge: Here is the next compound: CNc1nc(-c2cccc(NS(C)(=O)=O)c2)nc2ccccc12
Response given: 0 (no)

Challenge: Here is the next compound: Cc1cccc(CNc2ccnc(-c3ccccc3Cl)n2)c1
Response given: 0 (no)

Challenge: Here is the next compound: COc1ccc2[nH]cc(CCNc3ccnc(-c4ccccc4Cl)n3)c2c1
Response given: 0 (no)

Challenge: Here is the next compound: CC(C)(O/N=C(\C(=O)N[C@@H]1C(=O)N2C(C(=O)[O-])=C(C[n+]3ccccc3)CS[C@@H]12)c1csc(N)n1)C(=O)O
Response given: 0 (no)

Challenge: Here is the next compound: COc1ccc(NC(=O)N2CCCC3(CCN(C(=O)c4ccncc4)CC3)C2)cc1
Response given: 0 (no)

---

Molecular target: Glucocorticoid receptor (Homo sapiens)
Assay: GR-EFC Redistribution (AID 451)
Details: CHO-K1 GR-EFC translocation, beta-gal luminescence, 2 h
Active and inactive are the calls of the source. Calls come from the whole dose curve.
Bench note: report the call from yes (active), no (inactive)

Example results:
1) COc1ccc2[nH]cc(CCNc3ncnc4ccc(-c5ccc6c(c5)OCO6)cc34)c2c1 :: no
2) Cn1c(=O)c(CCc2ccccc2)nc2cnc(Oc3ccccc3)nc21 :: no
3) Cc1noc(C)c1-c1nc(Nc2ccc(F)cc2)c2ccccc2n1 :: no
4) N#Cc1ccc(CN2CCC3(CC2)CCN(C(=O)c2ccncc2)CC3)cc1 :: no

Challenge: Fill in: this test's call for COCCNc1ncnc2ccc(-c3c(C)noc3C)cc12 is ___
Response given: no

Challenge: Here is the next compound: O=c1cnc2cnc(Oc3cccc(Cl)c3)nc2n1C1CC1
Response given: no

Challenge: Here is the next compound: COCCNc1nc(-c2c(C)noc2C)nc2ccccc12
Response given: no

---

Tested on: DIV14
Assay: qHTS profiling for inhibitors of Plasmodium falciparum proliferation (AID 504749); further: nearly all actives have a fitted effect of over 60% in size
Settings: P. falciparum in erythrocytes, SYBR Green DNA, 72 h; series mostly up to 12.8 µM
Inconclusive results are not listed. Activity calls are given as the source filed them. The call rests on the fitted dose curve; in most records, active means well fitted inhibition curve with a large enough effect; inconclusive means small, poorly fitted or top-dose-only effect; inactive means flat fitted curve, though single readings scatter.
Bench note: report the call from active, inactive

Example results:
1. NC(N)=NC[C@@H]1COC2(CCCCC2)O1 :: inactive
2. C[C@@H](C(=O)O)c1ccc(C(=O)c2cccs2)cc1 :: inactive
3. C[n+]1ccccc1/C=N\O :: inactive
4. O=c1[nH]c(=O)n([C@@H]2C[C@H](O)[C@H](CO)O2)cc1I :: inactive
5. C[N+]1(C)CCC[C@@H](OC(=O)C(O)(c2ccccc2)c2ccccc2)C1 :: inactive

Challenge: Fill in: this test's call for O=c1[nH]cnc2c1ncn2C1OC(CO)C(O)C1O (stereo not drawn) is ___
Response given: inactive

Challenge: Here is the next compound: CCN(CC)CC#CCOC(=O)[C@@](O)(c1ccccc1)C1CCCCC1
Response given: active

Challenge: Here is the next compound: COc1ccccc1OC[C@H](O)COC(N)=O
Response given: inactive

Challenge: Here is the next compound: CCN(CC)CCC[C@H](C)Nc1ccnc2cc(Cl)ccc12
Response given: active

Challenge: Here is the next compound: COc1ccc(C[C@@H]2c3cc(OC)c(OC)cc3CC[N@+]2(C)CCC(=O)OCCCCCOC(=O)CC[N@@+]2(C)CCc3cc(OC)c(OC)cc3[C@H]2Cc2ccc(OC)c(OC)c2)cc1OC
Response given: inactive

Challenge: Here is the next compound: C[C@@H]1CCC[C@H](C)N1NC(=O)c1ccc(Cl)c(S(N)(=O)=O)c1
Response given: inactive

---

Assay: qHTS Assay for Lipid Storage Modulators (AID 1519); further: on the % scale 0 is the no-effect control and ±100 the full control effect
Settings: Drosophila S3 cells, BODIPY lipid droplet/cell ratio, laser cytometry; at 25.7 µM (top of the series); cells loaded with oleic acid
Inconclusive results are not listed.
PARAMETER: activity change, negative = inhibition (%)
Answer format: numeric, % implied, no suffix.

Sample answers from the record:
1) N[C@@H](CO)C(=O)NNCc1ccc(O)c(O)c1O :: -1.23
2) O=C(O)/C=C\c1ccc(Cn2ccnc2)cc1 :: 0.716

Challenge: What value of measured activity change, negative = inhibition is listed for NS(=O)(=O)c1cc([C@@]2(O)NC(=O)c3ccccc32)ccc1Cl ?
Response given: -1.2

Challenge: Here is the next molecule: C[C@@H](CN(C)C)CN1c2ccccc2CCc2ccccc21
Response given: -5.99

Challenge: Here is the next molecule: CN(C)[C@@H]1C(=O)C(C(N)=O)=C(O)[C@]2(O)C(=O)C3=C(O)c4c(O)ccc(Cl)c4[C@H](O)[C@H]3C[C@@H]12
Response given: 2.69

Challenge: Here is the next molecule: CC(=O)Nc1c(I)c(C(=O)N[C@H]2[C@@H](O)[C@H](O)[C@H](CO)O[C@@H]2O)c(I)c(N(C)C(C)=O)c1I
Response given: -0.4

---

Target: M-phase phosphoprotein 8 (Homo sapiens) (UniProt Q99549)
Sequence (Q99549 whole entry, looked up): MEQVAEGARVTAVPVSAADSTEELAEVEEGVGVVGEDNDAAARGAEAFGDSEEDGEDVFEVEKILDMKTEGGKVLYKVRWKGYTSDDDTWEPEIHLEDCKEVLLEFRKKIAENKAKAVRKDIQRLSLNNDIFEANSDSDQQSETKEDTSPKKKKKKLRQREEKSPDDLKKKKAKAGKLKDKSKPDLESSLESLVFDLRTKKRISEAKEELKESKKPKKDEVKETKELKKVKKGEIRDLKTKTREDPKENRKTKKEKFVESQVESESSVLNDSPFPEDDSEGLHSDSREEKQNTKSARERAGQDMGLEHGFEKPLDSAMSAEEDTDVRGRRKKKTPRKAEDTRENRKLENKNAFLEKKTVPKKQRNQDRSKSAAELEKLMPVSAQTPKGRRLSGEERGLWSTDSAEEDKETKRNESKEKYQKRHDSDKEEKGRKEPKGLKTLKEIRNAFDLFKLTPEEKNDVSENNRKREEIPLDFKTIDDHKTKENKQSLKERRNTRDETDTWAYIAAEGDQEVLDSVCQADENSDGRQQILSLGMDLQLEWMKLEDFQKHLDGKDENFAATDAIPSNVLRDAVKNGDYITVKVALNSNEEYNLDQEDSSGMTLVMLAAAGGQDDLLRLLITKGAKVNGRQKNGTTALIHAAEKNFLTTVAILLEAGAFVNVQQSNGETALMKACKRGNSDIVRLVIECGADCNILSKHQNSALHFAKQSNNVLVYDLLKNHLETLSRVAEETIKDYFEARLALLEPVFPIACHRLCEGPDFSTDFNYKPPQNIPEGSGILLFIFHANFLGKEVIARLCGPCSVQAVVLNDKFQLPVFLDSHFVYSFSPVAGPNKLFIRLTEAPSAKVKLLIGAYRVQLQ
Experiment: qHTS Validation Assay for Inhibitors for MPP8 Chromodomain Interactions with Methylated Histone Tails (AID 488949); further: nearly all actives have a fitted effect of over 55% in size
Conditions: AlphaScreen MPP8 binding to H3K9me3 peptide; series mostly up to 114 µM
Records with an inconclusive call do not appear. Activity calls are given as the source filed them. Calls come from the whole dose curve; as a rule, active = well fitted inhibition curve with a large enough effect; inconclusive = small, poorly fitted or top-dose-only effect; inactive = no such curve, though single readings can be large or run the other way.
Bench note: report the call from t (active), f (inactive)

Example results:
1. COc1ccc2c(c1OC)C(=O)OC2C1c2c(cc3c(c2OC)OCO3)CCN1C (centres undefined) :: f
2. CCCC1O[C@@H]2C[C@H]3[C@@H]4CCC5=CC(=O)C=C[C@]5(C)C4[C@@H](O)C[C@]3(C)[C@]2(C(=O)CO)O1 (some centres undefined) :: f
3. CNC(=O)[C@H]1O[C@@H](n2cnc3c(N)ncnc32)[C@H](O)[C@H]1O :: f

Turning now to a further record.
Challenge: Fill in: this test's call for CC#C[C@]1(O)CC[C@H]2C3CCC4=CC(=O)CCC4=C3[C@@H](c3ccc(N(C)C)cc3)C[C@@]21C (some centres undefined) is ___
Response given: t

---

Assay: qHTS Assay for Lipid Storage Modulators (AID 1519); further: on the % scale 0 is the no-effect control and ±100 the full control effect
Settings: Drosophila S3 cells, BODIPY lipid droplet/cell ratio, laser cytometry; at 57.5 µM (top of the series); cells loaded with oleic acid
Inconclusive results are not listed.
PARAMETER: activity change, negative = inhibition (%)
Answer format: numeric, % implied, no suffix.

Sample answers from the record:
1) COC(=O)CCCOc1ccc(Cl)cc1Cl :: 5.51
2) COc1cccc(Nc2ncc3nc(C)c(=O)n(CCC#N)c3n2)c1 :: -10.8
3) COc1cccc(-c2nc(N3CCNCC3)c3ccccc3n2)c1 :: 5.82
4) CNC(=O)[C@H]1O[C@@H](n2cnc3c(N)ncnc32)[C@H](O)[C@H]1O :: -1.94
5) CN1CCN(c2ncncc2-c2ccc(N(C)C)cc2)CC1 :: 2.46

Consider the record given below.
Challenge: What value of measured activity change, negative = inhibition is listed for CS(=O)(=O)c1ccc(Cn2c3c(c4cc(F)cc(F)c42)CCC[C@H]3CC(=O)O)cc1 ?
Response given: -2.09
